Form field: viability, T/C (one value per entry).
- Tested on: 926638-142-R-J1-PDC complex spheroid viability;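 note: spheroids exposed to drugs for one week before readout; percent viability relative to DMSO vehicle control wells set as 100%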
- experiment-description: Anticancer human tumor 926638-142-R-J1-PDC patient-derived endometrial carcinoma cell line growth inhibition [POLQ]
- condition-summary: second compound 3.16 µM; first compound 0.1 µM; hits give low values

{"compound": "O=c1[nH]cc(F)c(=O)[nH]1 + Cc1cccc(N(C)C(=O)C2C(O)CCN2c2nc(C)cc(C(F)(F)F)c2C#N)c1", "viability, T/C": "89.4%"}
{"compound": "CC1COCCN1c1cc(C2(O)CC3CCC(C2)O3)c2cnn(-c3ccn[nH]3)c2n1 (centres undefined) + Cc1cccc(N(C)C(=O)C2C(O)CCN2c2nc(C)cc(C(F)(F)F)c2C#N)c1", "viability, T/C": "61%"}
{"compound": "CNCc1ccc(-c2[nH]c3cc(F)cc4c3c2CCNC4=O)cc1 + Nc1ccc(C#CCN(C(=O)Cc2ncc(C(F)(F)F)cc2C(F)(F)F)c2ccc(F)cc2)nn1", "viability, T/C": "89.5%"}
{"compound": "CCc1cc2c(N3CCc4c(cc(Cn5ccnc5)cc4-c4cn(C)nc4C(F)(F)F)C3=O)cc(C)nc2c(OC)n1 + COC1C(OC(N)=O)C(O)C(Oc2ccc3c(O)c(NC(=O)c4ccc(O)c(CC=C(C)C)c4)c(=O)oc3c2C)OC1(C)C", "viability, T/C": "58.4%"}
